All figures here come from ChEMBL document CHEMBL1961873.

Consider the following compounds; for each one, report its inhibition.
- TESTED SYSTEM: Serine/threonine-protein kinase PAK 6 (Homo sapiens) (UniProt Q9NQU5);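 further: values are mean percent inhibition of PAK6 kinase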
- Sequence (Q9NQU5 whole entry, looked up): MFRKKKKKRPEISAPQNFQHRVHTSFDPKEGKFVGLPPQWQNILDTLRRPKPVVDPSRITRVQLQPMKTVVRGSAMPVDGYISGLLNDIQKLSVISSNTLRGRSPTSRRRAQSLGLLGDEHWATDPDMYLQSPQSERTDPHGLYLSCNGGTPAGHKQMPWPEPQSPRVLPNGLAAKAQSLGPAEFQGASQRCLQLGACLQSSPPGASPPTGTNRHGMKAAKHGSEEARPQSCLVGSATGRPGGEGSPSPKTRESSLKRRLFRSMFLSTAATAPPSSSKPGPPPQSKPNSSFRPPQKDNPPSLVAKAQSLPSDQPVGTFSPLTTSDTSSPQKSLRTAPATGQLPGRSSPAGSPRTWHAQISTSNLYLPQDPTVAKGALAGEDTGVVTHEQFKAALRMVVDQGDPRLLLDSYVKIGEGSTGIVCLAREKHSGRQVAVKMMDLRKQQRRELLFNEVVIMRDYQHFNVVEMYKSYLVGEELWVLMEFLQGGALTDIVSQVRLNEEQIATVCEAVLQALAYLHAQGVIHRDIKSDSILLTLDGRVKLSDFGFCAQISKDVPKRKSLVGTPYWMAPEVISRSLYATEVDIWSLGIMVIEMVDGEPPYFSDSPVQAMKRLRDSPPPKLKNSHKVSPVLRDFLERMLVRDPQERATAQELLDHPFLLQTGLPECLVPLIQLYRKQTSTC
- PARTICULARS: at 1 µM
# number only, unit % dropped from output

Inquiry: Look up inhibition: `COc1ccc(-c2oc3ncnc(N)c3c2-c2ccc(NC(=O)Nc3cc(C(F)(F)F)ccc3F)cc2)cc1`
Reply text: 11

Inquiry: Next compound up: `CN(C)CCOc1ccc(-c2nc(-c3ccncc3)c(-c3ccc4c(c3)CC/C4=N\O)[nH]2)cc1`
Reply text: 9.98

Inquiry: Please answer likewise for `CC(=O)Nc1cccc(C#Cc2cncnc2Nc2ccc(OCc3cccc(F)c3)c(Cl)c2)c1`
Reply text: -5.42

Inquiry: What do you get for `COC(=O)Nc1nc2ccc(S(=O)(=O)c3ccc(NC(=O)Nc4cc(C(F)(F)F)ccc4F)cc3)cc2[nH]1` ?
Reply text: -4.19

Inquiry: // next record `CCc1nn2ncccc2c1-c1ccnc(NC2CC2)n1`
Reply text: -4.39

* * *

- TESTED SYSTEM: Fibroblast growth factor receptor 4 (Homo sapiens);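 further: values are mean percent inhibition of FGFR4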
- PARTICULARS: at 0.1 µM
MEASUREMENT LABEL: inhibition (%)
Lab book: enter the figure in %, no units written.

Inquiry: Which inhibition reading was recorded for the compound `c1ccc(-c2nc3n(c2-c2ccc4c(c2)OCO4)CCC3)nc1` ?
Reply text: -1.29

Inquiry: Then `O=C(Nc1n[nH]c2cc(-c3ccc(F)cc3)ccc12)C1CC1` ?
Reply text: -1.21

Inquiry: Moving on to `Cc1cccc2c1NC(=O)/C2=N\Nc1ccc(S(N)(=O)=O)cc1`
Reply text: 2.12

Inquiry: // repeat for `CN1CCC(n2cnc(-c3ccc(F)cc3)c2-c2ccnc(N)n2)CC1` and report
Reply text: 1.4

Inquiry: Can you handle `COC(=O)Nc1nc2ccc(S(=O)(=O)c3ccc(NC(=O)Nc4cc(C(F)(F)F)ccc4F)cc3)cc2[nH]1` next?
Reply text: -1.95

Inquiry: What do you have for `COc1cc(Nc2nccc(Nc3ccc4c(C)n[nH]c4c3)n2)cc(OC)c1OC` ?
Reply text: 2.39

Inquiry: What would you report for `Nc1nc(-c2cccc(Cl)c2)c(-c2ccc3ncccc3n2)s1` ?
Reply text: -1.18

Inquiry: For `COc1ccc(-c2nn3ncccc3c2-c2ccnc(Nc3ccc4c(c3)OCCO4)n2)cc1` then?
Reply text: 1.59

Inquiry: Try this compound too: `COc1cc(N2CCN(C(C)C)CC2)ccc1Nc1nc(Nc2ccc(F)cc2C(N)=O)c2cc[nH]c2n1`
Reply text: 4.7

Inquiry: # repeat for `CCNC(=O)O[C@H]1CN[C@H](C#Cc2cc3ncnc(Nc4ccc(OCc5cccc(F)c5)c(Cl)c4)c3s2)C1`
Reply text: 1.14

Inquiry: Proceed to `CCN(CC)S(=O)(=O)c1ccc(OC)c(Nc2ncc(-c3ccccc3)o2)c1`
Reply text: 2.44

Inquiry: Repeat for the following compound: `Cc1ccc2c(-c3ccnc(Nc4ccccc4)n3)c(-c3ccc(F)cc3)nn2n1`
Reply text: 1.19

Inquiry: Now this one: `Fc1ccc(-c2cc(-c3c[nH]nc3-c3ccccn3)ccn2)cc1`
Reply text: -0.17

Inquiry: Same lookup for CC1=C(C(=O)Nc2cc(Cl)c3[nH]ncc3c2)C(c2ccc(C(F)(F)F)cc2)CC(=O)N1 (stereo not given) , please.
Reply text: 2.42

Inquiry: Try this compound too: `c1cc(-c2cnn3nc(N4CCOCC4)ccc23)nc(NC2CC2)n1`
Reply text: 1.73

Inquiry: Lookup `CCCN(CCS(C)(=O)=O)Cc1ccc(-c2ccc3ncnc(Nc4ccc(OCc5cccc(F)c5)c(Cl)c4)c3c2)o1`
Reply text: 1.61

Inquiry: Same lookup for `Nc1nc(-c2ccc(F)cc2)c(-c2ccc3ncccc3n2)s1` , please.
Reply text: 1.96

Inquiry: Okay, and `Fc1ccc(-c2nn3ccccc3c2-c2ccncc2)cc1` ?
Reply text: 0.84

Inquiry: Repeat with `COC(=O)Nc1nc2ccc(Oc3ccc(NC(=O)Nc4cccc(Cl)c4)cc3)cc2[nH]1`
Reply text: 0.5

Inquiry: Try this compound next: `CS(=O)(=O)CCNCc1ccc(-c2ccc3ncnc(Nc4ccc(OCc5ccccc5)c(C(F)(F)F)c4)c3c2)o1`
Reply text: 2.52

* * *

Please respond with reported inhibition for every item in the list.
- TESTED SYSTEM: cGMP-dependent protein kinase 1 (Homo sapiens)
- PARTICULARS: at 0.1 µM
- Description: GSK_PKIS: PRKG1 mean inhibition at 0.1 uM [Nanosyn]
I only need the number, in %, no unit after it.

Inquiry: Reported inhibition for `CCc1nn2ncccc2c1-c1ccnc(NC2CC2)n1` : what is it?
Reply text: 1.92

Inquiry: Consider next the molecule `Cc1cccc(Nc2ncc(-c3ccccc3)o2)c1` in the same way.
Reply text: 5.35

Inquiry: `c1ccc(-c2nc3n(c2-c2ccc4c(c2)OCO4)CCC3)nc1` ?
Reply text: 2.47

Inquiry: Then what about the molecule `COc1cc2ncn(-c3cc(OCc4ccccc4C(F)(F)F)c(C(=O)N(C)C)s3)c2cc1OC` ?
Reply text: -0.43

Inquiry: Then this molecule: `CN(C)CCOc1ccc(-c2nc(-c3ccncc3)c(-c3ccc4c(c3)CC/C4=N\O)[nH]2)cc1`
Reply text: 2.17

Inquiry: And `CCn1cc(-c2ccnc3[nH]ccc23)c(-c2cccc(NC(=O)Nc3ccc(OCc4ccccc4)cc3)c2)n1` ?
Reply text: 2.12

Inquiry: Input `COc1cc(Nc2nccc(Nc3ccc4c(C)n[nH]c4c3)n2)cc(OC)c1OC`
Reply text: 3.29

Inquiry: Next molecule up: `CC(C)COC(=O)c1ccc2c(c1)/C(=C/Nc1ccc(S(N)(=O)=O)cc1)C(=O)N2`
Reply text: 4.93

Inquiry: Entry to check: `COc1ccc(-c2nn3ncccc3c2-c2ccnc(Nc3ccc4c(c3)OCCO4)n2)cc1`
Reply text: -0.47

Inquiry: Please answer likewise for `CC(C)(CO)CNC(=O)c1ccc2c(c1)/C(=N/Nc1ccc(S(N)(=O)=O)cc1)C(=O)N2`
Reply text: 0.66

Inquiry: Note, next up: `CCn1c(-c2nonc2N)nc2ccccc21`
Reply text: 6.5

Inquiry: Would you mind doing `COc1ccc2c(-c3ccnc(Nc4cccc(OC(F)(F)F)c4)n3)cnn2n1` as well?
Reply text: 2.98

Inquiry: Also, CC1=C(C(=O)Nc2cc(Cl)c3[nH]ncc3c2)C(c2ccc(C(F)(F)F)cc2)CC(=O)N1 (stereo not given) please.
Reply text: 27.6

Inquiry: Quick one: `CCn1c(-c2nonc2N)nc2c(C#CC(C)(C)O)ncc(OC3CCNCC3)c21`
Reply text: 31.1

Inquiry: Same lookup for `N#Cc1c(NC(=O)c2ccc(F)cc2)sc2c1CCCC2` , please.
Reply text: 0.21

Inquiry: And then `Nc1nc(-c2ccc(F)cc2)c(-c2ccc3ncccc3n2)s1` , what is it?
Reply text: 0.69

Inquiry: Follow-up entry: `Fc1ccc(-c2nn3ncccc3c2-c2ccnc(Nc3ccc4c(c3)OCCO4)n2)cc1`
Reply text: 2.53

Inquiry: Continue with `O=S(=O)(CCNCc1ccc(-c2ccc3ncnc(Nc4ccc(OCc5cccc(F)c5)c(Cl)c4)c3c2)o1)c1ccccc1`
Reply text: 4.89

Inquiry: Let us now turn to `CCCN1CCC(c2ccc(Nc3nc(Nc4cc(F)ccc4C(N)=O)c4cc[nH]c4n3)c(OC)c2)CC1`
Reply text: 9.75

Inquiry: # iterate: `CCNC(=O)O[C@H]1CN[C@H](C#Cc2cc3ncnc(Nc4ccc(OCc5cccc(F)c5)c(Cl)c4)c3s2)C1`
Reply text: 2.33

* * *

Give inhibition for every item shown.
- TESTED SYSTEM: PAS domain-containing serine/threonine-protein kinase (Homo sapiens);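 further: reported value is the mean percent inhibition of PASK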
- PARTICULARS: at 1 µM
Field format: number, assumed %, no unit text.

Inquiry: What does the record list as inhibition for `COc1ccc(CNC(=O)c2ccc(-c3cc(-c4nnc(C)o4)ccc3C)cc2)cc1` ?
Reply text: 8.41

Inquiry: And `c1ccc(-c2nc3n(c2-c2ccc4c(c2)OCO4)CCC3)nc1` ?
Reply text: -0.24

Inquiry: Now this one: `Clc1ccc(-c2nn3ncccc3c2-c2ccnc(Nc3ccccc3)n2)cc1`
Reply text: 0.05

Inquiry: Same question for `Fc1ccc(-c2cc(-c3c[nH]nc3-c3ccccn3)ccn2)cc1` please.
Reply text: 0.53

Inquiry: Try this molecule too: `O=C(Nc1n[nH]c2cc(-c3ccc(F)cc3)ccc12)C1CC1`
Reply text: -1.02

Inquiry: Again, but for `COc1cccc(-n2ncc3c(N/N=C/c4ccc(F)cc4)ncnc32)c1`
Reply text: 0.35

Inquiry: Another: `Nc1nc(-c2ccc(F)cc2)c(-c2ccc3ncccc3n2)s1`
Reply text: -0.64

Inquiry: Here is the next molecule: `COc1cc2ncn(-c3cc(OCc4ccccc4C(F)(F)F)c(C(=O)N(C)C)s3)c2cc1OC`
Reply text: 0.41

Inquiry: Now give it for `CN1CCC(n2cnc(-c3ccc(F)cc3)c2-c2ccnc(N)n2)CC1` too.
Reply text: 1.84

Inquiry: Same read-out for `NS(=O)(=O)c1ccc(Nc2ncc(-c3ccccc3)o2)cc1` ?
Reply text: -0.31

Inquiry: Please do the same for `COc1cc(/C=N/Nc2ncnc3[nH]ncc23)ccc1O` as well.
Reply text: 1.75
